Overview of recorded pIC50 for various compounds
- Test system: HeLa cells
- protocol: MTT assay, HeLa cell growth inhibition
- Format: cell-based
- setup conditions: HeLa cells treated for 72 h, MTT
# log scale: pIC50 equals minus log10 of the concentration in mol/L

// known answers, use as guide
{"compound": "C=C1CCCC(C)(C)[C@H]1C[C@H]1C[C@@]23CC(C(C)(C)O)OC2=C(C(=O)c2ccc(O)c(O)c2)C(=O)[C@](CC=C(C)C)(C3=O)C1(C)C (relative stereo)", "parameter": "pIC50", "meas value": 5.24}
{"compound": "CC(C)=CC[C@H]1C[C@@]23CC4(CCC(C)(C)C[C@]4(C)O)OC2=C(OC(=O)c2ccc(O)c(O)c2)C(=O)[C@](CC=C(C)C)(C3=O)C1(C)C (relative stereo)", "parameter": "pIC50", "meas value": 4.61}
{"compound": "CC(C)=CC[C@H]1C[C@@]23CC4(CCC(C)(C)C[C@]4(C)O)OC2=C(C(=O)c2ccc(O)c(O)c2)C(=O)[C@](CC=C(C)C)(C3=O)C1(C)C (relative stereo)", "parameter": "pIC50", "meas value": 5.00}

Now take the following compound into account.
Req: Which pIC50 is reported with HeLa cells for this entry: CC(C)=CC[C@H]1C[C@@]23CC4(CCC(C)(C)C[C@@]4(C)O)OC2=C(C(=O)c2ccc(O)c(O)c2)C(=O)[C@](CC=C(C)C)(C3=O)C1(C)C (relative stereo) ?
Resp: 5.09

Reference for the values: patent US20110301233A1
